test system: murine splenic mononuclear cells; assay: Mitogenic assay: Concanavalin A stimulated proliferation ([3H]-thymidine incorporation) of murine splenic mononuclear cells; type: cell-based, CD-1 mice; details: Mus musculus, 48 h; murine cells; Concanavalin A 2.5 μg/mL; 2 days; read-out: IC50, inhibition of Concanavalin A stimulated proliferation
READOUT: IC50 (nM)
// note: answer is a bare numeric in nM

For the compound Nc1ncnc2c1ncn2[C@@H]1O/C(=C\F)[C@@H](O)[C@H]1O [Compound A] , report IC50. 190
